test system: Leishmania donovani; test: Leishmania intramacrophage assay; format: functional, organism-based; parameters: scale not given: in the data most compounds retested in dose-response had high values; details: 30.3 µM; […]
About 1,000 (1.4%) of roughly 69,000 compounds showed an effect of 50% or more. Many of the other results were omitted from the sample, so strong results are more common in it than they were.
The reader will find reported Percent Effect values listed item by item below.
Just the number please, in %, no unit attached.

Known Percent Effect results, listed for orientation:
COMPOUND: Cc1ccoc1C(=O)N1C[C@@H](OCC2CC2)[C@H]2OCCC[C@H]21
Percent Effect, %: 18.9
--
COMPOUND: Cn1ccnc1COc1ccc(COC(=O)C2CCCO2)cc1 (stereo unspecified)
Percent Effect, %: -0.4672
--
COMPOUND: Cc1nsc(N2CCc3sccc3C2)n1
Percent Effect, %: 14.81
--
COMPOUND: CC(=O)N1CCN(C(=O)Cn2ccc3c(Cl)cccc32)CC1
Percent Effect, %: 1.884
--
COMPOUND: CC(C)CCN1CC[C@H](c2nnc(Cc3c[nH]c4ccccc34)o2)C1
Percent Effect, %: 31.19
--
COMPOUND: Oc1ccc(-c2c(-c3ccccc3)ncn2C2CCNC2)cc1 (stereo unspecified)
Percent Effect, %: -26.99

Entry under test: c1ccc(Cc2nc(CNC3CCC4(CCNCC4)CC3)no2)cc1 . Its Percent Effect was -22.96

# compound Cn1cnnc1SCc1cc2c(cc1Br)OCO2 ; its Percent Effect = -1.981

Value of Percent Effect reported for the compound C[C@@H]1CN(Cc2cc3ccccc3n2C)CC[C@]1(C)O is 19.22

The measured Percent Effect associated with CCc1ccsc1C(=O)N1CCN(C(=O)c2ccc(C)o2)CC1 reads 56.23

For this compound ( CC(C)Nc1cccc(CC2CCN(C)C2)n1.O=CO (stereo unspecified) ), measured Percent Effect is 8.612

Recorded Percent Effect (compound COc1ncccc1C(=O)N1CCC(c2nc3c(C)cccc3[nH]2)CC1 ): -25.37
